Item-by-item account of MIC
# Tested on: M. tuberculosis H37Rv strain
# experiment_notes: microbe, parasite or virus in culture
# Type: cell-based
# condition_details: Mycobacterium tuberculosis, concentration inhibiting 90% of bacterial population, read-out: MIC90 H37Rv

smiles_str	measurement_unit	MIC
CCOC(=O)c1cn(Cc2ccc(Cl)cc2Cl)c2ccc(/C(C)=N/NC(N)=S)cc2c1=O	µM	31.6
C/C(=N\NC(N)=S)c1ccc2c(c1)c(=O)c(C(=O)NCCNCCO)cn2Cc1ccc(Br)cc1	µM	10.3
C/C(=N\NC(N)=S)c1ccc2c(c1)c(=O)c(C(=O)NCCNCCO)cn2Cc1ccccc1	µM	2.7

* * *

Item-by-item account of melting point

smiles_str	melting point
COCCNC(=O)c1cn(Cc2ccc(Cl)cc2Cl)c2ccc(/C(C)=N/NC(N)=S)cc2c1=O	209 to 211 °C
COCCNC(=O)c1cn(Cc2ccc(Br)cc2)c2ccc(/C(C)=N/NC(N)=S)cc2c1=O	204 to 206 °C
C/C(=N\NC(N)=S)c1ccc2c(c1)c(=O)c(C(=O)NCCNCCO)cn2Cc1ccc(Cl)cc1Cl	205 to 207 °C
C/C(=N\NC(N)=S)c1ccc2c(c1)c(=O)c(C(=O)NCCNCCO)cn2Cc1ccc(C(F)(F)F)cc1	199 to 201 °C
C/C(=N\NC(N)=S)c1ccc2c(c1)c(=O)c(C(=O)NCCNCCO)cn2Cc1ccc(Br)cc1	200 to 202 °C
CCOC(=O)c1cn(Cc2ccc(Cl)cc2Cl)c2ccc(/C(C)=N/NC(N)=S)cc2c1=O	211 to 213 °C
C/C(=N\NC(N)=S)c1ccc2c(c1)c(=O)c(C(=O)NCCNCCO)cn2Cc1ccccc1	197 to 199 °C

* * *

Item-by-item account of melting point

compound	melting point
CCn1cc(C(=O)NCCNCCO)c(=O)c2cc(/C(C)=N/NC(N)=S)ccc21 [Compound 12]	183 to 185 °C
CCn1cc(C(=O)NCCCn2ccnc2)c(=O)c2cc(/C(C)=N/NC(N)=S)ccc21 [Compound 11]	187 to 189 °C
COCCNC(=O)c1cn(Cc2ccccc2)c2ccc(/C(C)=N/NC(N)=S)cc2c1=O [Compound 17]	199 to 200 °C

* * *

Item-by-item account of MIC90
# Tested on: M. tuberculosis H37Rv strain
# experiment_notes: microbe, parasite or virus in culture
# Assay type: cell-based
# condition_details: Mycobacterium tuberculosis, concentration inhibiting 90% of bacterial population
reported_property: MIC90 (µM)

compound	reported_property	qual	result
CCOC(=O)c1cn(Cc2ccc(Cl)cc2Cl)c2ccc(/C(C)=N/NC(N)=S)cc2c1=O	MIC90	=	31.6
C/C(=N\NC(N)=S)c1ccc2c(c1)c(=O)c(C(=O)NCCNCCO)cn2Cc1ccc(Br)cc1	MIC90	=	10.3
C/C(=N\NC(N)=S)c1ccc2c(c1)c(=O)c(C(=O)NCCNCCO)cn2Cc1ccc(C(F)(F)F)cc1	MIC90	=	2
COCCNC(=O)c1cn(Cc2ccc(Cl)cc2Cl)c2ccc(/C(C)=N/NC(N)=S)cc2c1=O	MIC90	=	10.2
CCn1cc(C(=O)NCCCn2ccnc2)c(=O)c2cc(/C(C)=N/NC(N)=S)ccc21	MIC90	>	125
COCCNC(=O)c1cn(Cc2ccccc2)c2ccc(/C(C)=N/NC(N)=S)cc2c1=O	MIC90	=	44.2
CCn1cc(C(=O)NCCNCCO)c(=O)c2cc(/C(C)=N/NC(N)=S)ccc21	MIC90	=	73.4
CO[C@H]1/C=C/O[C@@]2(C)Oc3c(C)c(O)c4c(O)c(c(/C=N/N5CCN(C)CC5)c(O)c4c3C2=O)NC(=O)/C(C)=C\C=C\[C@H](C)[C@H](O)[C@@H](C)[C@@H](O)[C@@H](C)[C@H](OC(C)=O)[C@@H]1C [RF, Rifampicin, reference compound]	MIC90	=	0.062
C/C(=N\NC(N)=S)c1ccc2c(c1)c(=O)c(C(=O)NCCNCCO)cn2Cc1ccc(Cl)cc1Cl	MIC90	=	4.8
C/C(=N\NC(N)=S)c1ccc2c(c1)c(=O)c(C(=O)NCCNCCO)cn2Cc1ccccc1	MIC90	=	2.7
COCCNC(=O)c1cn(Cc2ccc(Br)cc2)c2ccc(/C(C)=N/NC(N)=S)cc2c1=O	MIC90	=	15

Where do these numbers come from? They come from paper PMC6540015.
